B1: library; a variant is named by its letters at N, in order (parent)
chain: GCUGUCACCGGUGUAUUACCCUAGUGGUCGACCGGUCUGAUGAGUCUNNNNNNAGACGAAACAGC

Variants of: B1
Test: normalized RNA/DNA level without ligand (relative to sTRSVctl = 100) (log10 (% of sTRSVctl)); ligand: hypoxanthine (xanthine aptamer); higher = less ribozyme self-cleavage, higher mRNA level
Conditions: HEK293T, reporter: mCherry (pCS4076), ligand present: no
measured-attribute: normalized RNA/DNA level without ligand (log10)
API note: the answer field is a bare number with no unit suffix.

Name the recorded normalized RNA/DNA level without ligand (log10) for GCUGUCACCGGUGUAUUACCCUAGUGGUCGACCGGUCUGAUGAGUCUGCGAUAAGACGAAACAGC [GCGAUA] .
1.59

Name the recorded normalized RNA/DNA level without ligand (log10) for GCUGUCACCGGUGUAUUACCCUAGUGGUCGACCGGUCUGAUGAGUCUCACCCUAGACGAAACAGC [CACCCU] .
1.91

Name the recorded normalized RNA/DNA level without ligand (log10) for GCUGUCACCGGUGUAUUACCCUAGUGGUCGACCGGUCUGAUGAGUCUGCUCUUAGACGAAACAGC [GCUCUU] .
1.91

New cases:
Name the recorded normalized RNA/DNA level without ligand (log10) for GCUGUCACCGGUGUAUUACCCUAGUGGUCGACCGGUCUGAUGAGUCUGGUGGCAGACGAAACAGC [GGUGGC] .
1.57
